meta.source: ChEMBL document CHEMBL4251572

Can you tell me MIC for the items I'm about to list?
Tested on: Pseudomonas aeruginosa
assay_text: Antibacterial activity against Pseudomonas aeruginosa after 24 hrs by micro broth dilution assay
Format: functional
// note: answer is a bare numeric in µg/mL

Incoming: Can you look up MIC on Pseudomonas aeruginosa for CCCCn1c(-c2cc(-c3ccc(C)cc3)nc(N)n2)nc2ccccc21 ?
Outgoing: 8

Incoming: What value of MIC on Pseudomonas aeruginosa does CCCCCCCCn1c(-c2cc(-c3ccc(Cl)cc3)nc(N)n2)nc2ccccc21 have?
Outgoing: 32

Incoming: API: value(readout=MIC, system=Pseudomonas aeruginosa) for record CCCCCCn1c(-c2cc(-c3ccc(Cl)cc3Cl)nc(N)n2)nc2ccccc21
Outgoing: 512

Incoming: Entry Nc1nc(-c2nc3ccccc3[nH]2)cc(-c2ccc(Cl)cc2Cl)n1 , system Pseudomonas aeruginosa: what MIC was measured?
Outgoing: 32

Incoming: MIC of CCCCCCCCn1c(C(=O)/C=C/c2ccc(Cl)cc2)nc2ccccc21 on Pseudomonas aeruginosa?
Outgoing: 512

Incoming: # query: MIC | item CCCCCCCn1c(C(=O)/C=C/c2ccc(Cl)cc2)nc2ccccc21 | system: Pseudomonas aeruginosa
Outgoing: 512

Incoming: Quick check: MIC on Pseudomonas aeruginosa, item CCCCCCCn1c(-c2cc(-c3ccc(F)cc3)nc(N)n2)nc2ccccc21 ?
Outgoing: 512

Incoming: Return MIC measured with Pseudomonas aeruginosa given this molecule: CCCCCCn1c(C(=O)/C=C/c2ccc(C)cc2)nc2ccccc21
Outgoing: 512

* * *

Exercise: for every item that follows, state its recorded log10 of MIC.
Tested on: Cyberlindnera jadinii
assay_text: Antifungal against Candida utilis after 24 hrs by two fold serial dilution method
Format: functional
experimental_context: Williopsis jadinii
Record value = log10 of MIC given in mg/L.

Incoming: Fill in the recorded log10 of MIC for this compound, with Cyberlindnera jadinii as test system: CCCCCCCn1c(-c2cc(-c3ccc(C)cc3)nc(N)n2)nc2ccccc21
Outgoing: 1.51

Incoming: Give Cyberlindnera jadinii log10 of MIC for Nc1nc(-c2ccc(F)cc2)cc(-c2nc3ccccc3[nH]2)n1
Outgoing: 2.11

Incoming: Recorded log10 of MIC for Cc1ccc(-c2cc(-c3nc4ccccc4[nH]3)nc(N)n2)cc1 with Cyberlindnera jadinii, please?
Outgoing: 0.60

Incoming: What log10 of MIC appears in the records for this compound with Cyberlindnera jadinii? CCCCCCCn1c(C(=O)/C=C/c2ccc(C)cc2)nc2ccccc21
Outgoing: 2.71

Incoming: Hi! What's the reported log10 of MIC for CCCCn1c(-c2cc(-c3ccc(C)cc3)nc(N)n2)nc2ccccc21 on Cyberlindnera jadinii?
Outgoing: 0.60

Incoming: Provide value of log10 of MIC for this record tested with Cyberlindnera jadinii: CCCCn1c(C(=O)/C=C/c2ccc(Cl)cc2Cl)nc2ccccc21
Outgoing: 2.71

Incoming: // lookup log10 of MIC | system=Cyberlindnera jadinii | key= CCCCn1c(-c2cc(-c3ccc(Cl)cc3)nc(N)n2)nc2ccccc21
Outgoing: 0.30

Incoming: Tell me reported log10 of MIC for CCCCCCn1c(C(=O)/C=C/c2ccc(F)cc2)nc2ccccc21 , tested with Cyberlindnera jadinii.
Outgoing: 2.71

Incoming: // lookup log10 of MIC | system=Cyberlindnera jadinii | key= CCCCCCn1c(C(=O)/C=C/c2ccc(C)cc2)nc2ccccc21
Outgoing: 2.71

Incoming: What measured log10 of MIC is associated with CCCCCCCn1c(-c2cc(-c3ccc(Cl)cc3)nc(N)n2)nc2ccccc21 on Cyberlindnera jadinii?
Outgoing: 0.60

Incoming: Lab note: need log10 of MIC for CCCCn1c(C(=O)/C=C/c2ccc(F)cc2)nc2ccccc21 on Cyberlindnera jadinii, anyone have it?
Outgoing: 1.20

Incoming: What is its log10 of MIC for Cyberlindnera jadinii? Entry: Nc1nc(-c2nc3ccccc3[nH]2)cc(-c2ccc(Cl)cc2Cl)n1
Outgoing: 0.30

Incoming: What reported log10 of MIC corresponds to Cc1ccc(/C=C/C(=O)c2nc3ccccc3[nH]2)cc1 on Cyberlindnera jadinii?
Outgoing: 1.20

Incoming: Lookup: log10 of MIC / Cyberlindnera jadinii / CCCCCCCCn1c(-c2cc(-c3ccc(C)cc3)nc(N)n2)nc2ccccc21
Outgoing: 1.20

Incoming: // map CCCCCCn1c(-c2cc(-c3ccc(F)cc3)nc(N)n2)nc2ccccc21 to recorded log10 of MIC (system: Cyberlindnera jadinii)
Outgoing: 0.90

Incoming: API: value(readout= log10 of MIC, system= Cyberlindnera jadinii, query= CCCCCCn1c(-c2cc(-c3ccc(C)cc3)nc(N)n2)nc2ccccc21 )
Outgoing: 0.90

Incoming: Form entry - test system: Cyberlindnera jadinii; read-out: log10 of MIC; compound: CCCCCCCn1c(-c2cc(-c3ccc(Cl)cc3Cl)nc(N)n2)nc2ccccc21
Outgoing: 2.11

Incoming: // lookup log10 of MIC | system=Cyberlindnera jadinii | key= CCCCn1c(-c2cc(-c3ccc(F)cc3)nc(N)n2)nc2ccccc21
Outgoing: 0.90

Incoming: Please provide the recorded log10 of MIC for CCCCCCCCn1c(C(=O)/C=C/c2ccc(Cl)cc2)nc2ccccc21 , tested on Cyberlindnera jadinii.
Outgoing: 2.71

Incoming: Find the measured log10 of MIC: item OC(Cn1cncn1)(Cn1cncn1)c1ccc(F)cc1F [FLUCONAZOLE] , target or system Cyberlindnera jadinii.
Outgoing: 1.20

Incoming: Please tell me: log10 of MIC of CCCCCCn1c(C(=O)/C=C/c2ccc(Cl)cc2)nc2ccccc21 , system Cyberlindnera jadinii?
Outgoing: 2.71

Incoming: Lab note: need log10 of MIC for CCCCCCCCn1c(-c2cc(-c3ccc(F)cc3)nc(N)n2)nc2ccccc21 on Cyberlindnera jadinii, anyone have it?
Outgoing: 0.90

Incoming: Lookup: log10 of MIC / Cyberlindnera jadinii / CCCCCCn1c(C(=O)/C=C/c2ccc(Cl)cc2Cl)nc2ccccc21
Outgoing: 2.71
